test system: amsacrine-resistant Jurkat human leukaemia cell line (JLA); assay: Cytotoxicity, amsacrine-resistant Jurkat cell line JLA; assay type: cell-based; conditions: IC50 in JLA divided by IC50 in JLC; atypical drug resistance
reported.property: Rf (JLA/JLC)

Solved entries (count: 2):
- compound: "COc1cccc2c1ccc1nc3cccc(C(=O)N[C@@H](CN(C)C)C(C)C)c3nc12"
  Rf (JLA/JLC): 2.1
- compound: "COc1cccc2c1C(=O)c1c(O)c3c(c(O)c1C2=O)C[C@@](O)(C(=O)CO)C[C@@H]3O[C@H]1C[C@H](N)[C@H](O)[C@H](C)O1 [Doxorubicin, reference compound]"
  Rf (JLA/JLC): 3.7

// recorded Rf (JLA/JLC) for COc1cccc2c1ccc1nc3cccc(C(=O)NC(C)CN(C)C)c3nc12 (stereo not drawn) : 0.7
